Experiment: Passive permeability from basolateral to apical side in human Caco2 cells
Format: ADME, cell-based
Settings: Caco-2, read-out: permeability
Each entry below carries its recorded Papp B→A.
# include the unit after the value

Sample answers from the record:
structure: CC1(C)CC(NC(=O)c2ccc(Oc3cccc(-c4ccnnc4)c3C#N)c(Cl)c2)CC(C)(C)N1
Papp B→A: 3.29 ×10⁻⁶ cm/s
//
structure: CC1(C)CC(COc2ccc(Oc3cccc(-c4ccncn4)c3C#N)c(Cl)c2)CC(C)(C)N1
Papp B→A: 2.1 ×10⁻⁶ cm/s
//
structure: CC1(C)CC(OC(=O)c2ccc(Oc3cccc(-c4ccnnc4)c3C#N)c(Cl)c2)CC(C)(C)N1
Papp B→A: 47.7 ×10⁻⁶ cm/s

Now for another entry.
Papp B→A recorded for this molecule, CC1(C)CC(NC(=O)c2ccc(Oc3cccc(-c4ccnnc4)c3C#N)c(Cl)c2)CC(C)(C)O1 , is 24.8 ×10⁻⁶ cm/s

###

Target: Histone-lysine N-methyltransferase EZH2 (Homo sapiens)
pIC50: −log10 of the molar value.
Think of 6 as a floor: if pIC50 stands on it or above, it is 1; beneath it, 0.

compound: CC1(C)CC(NC(=O)c2ccc(Oc3cccc(-c4cn[nH]c4)c3C#N)c(Cl)c2)CC(C)(C)N1
category: 1
//
compound: Cc1cccc(Oc2ccc(C(=O)NC3CC(C)(C)NC(C)(C)C3)cc2)c1
category: 0
//
compound: CC1(C)CC(NC(=O)c2ccc(Oc3ccccc3C#N)c(Cl)c2)CC(C)(C)N1
category: 1
//
compound: CC1(C)CC(COc2ccc(Oc3cccc(-c4ccncn4)c3C#N)c(Cl)c2)CC(C)(C)N1
category: 1
//
compound: CC1(C)CC(NC(=O)c2ccc(Oc3ccccc3C#N)c(C3CC3)c2)CC(C)(C)N1
category: 1

Challenge: API: above_or_equal(metric=pIC50, cutoff=6) for item CC1(C)CC(NC(=O)c2ccc(Oc3ccccc3C#N)cc2)CC(C)(C)N1
Response given: 0

Challenge: API: above_or_equal(metric=pIC50, cutoff=6) for item CC1(C)CC(NC(=O)c2ccc(Oc3ccccc3C#N)c(Cl)c2)C(F)(F)C(C)(C)N1 (centres undefined)
Response given: 0

###

Assay: Passive permeability from apical to basolateral side in human Caco2 cells
Type: ADME, cell-based
Settings: Caco-2, read-out: permeability
Each entry below carries its recorded Papp A→B.
Supply the numeric figure in ×10⁻⁶ cm/s, leaving out any unit text.

structure: CC1(C)CC(COc2ccc(Oc3cccc(-c4ccncn4)c3C#N)c(Cl)c2)CC(C)(C)N1
Papp A→B, ×10⁻⁶ cm/s: 0.5

Papp A→B recorded for this compound, CC1(C)CC(NC(=O)c2ccc(Oc3cccc(-c4ccnnc4)c3C#N)c(Cl)c2)CC(C)(C)O1 , is 21.9

Papp A→B recorded for this compound, CC1(C)CC(OC(=O)c2ccc(Oc3cccc(-c4ccnnc4)c3C#N)c(Cl)c2)CC(C)(C)N1 , is 20.4

Papp A→B recorded for this compound, CC1(C)CC(NC(=O)c2ccc(Oc3cccc(-c4ccnnc4)c3C#N)c(Cl)c2)CC(C)(C)N1 , is 0.19

###

Biological target: Histone-lysine N-methyltransferase EZH2 (Homo sapiens, UniProt Q15910)
Sequence (Q15910 whole entry): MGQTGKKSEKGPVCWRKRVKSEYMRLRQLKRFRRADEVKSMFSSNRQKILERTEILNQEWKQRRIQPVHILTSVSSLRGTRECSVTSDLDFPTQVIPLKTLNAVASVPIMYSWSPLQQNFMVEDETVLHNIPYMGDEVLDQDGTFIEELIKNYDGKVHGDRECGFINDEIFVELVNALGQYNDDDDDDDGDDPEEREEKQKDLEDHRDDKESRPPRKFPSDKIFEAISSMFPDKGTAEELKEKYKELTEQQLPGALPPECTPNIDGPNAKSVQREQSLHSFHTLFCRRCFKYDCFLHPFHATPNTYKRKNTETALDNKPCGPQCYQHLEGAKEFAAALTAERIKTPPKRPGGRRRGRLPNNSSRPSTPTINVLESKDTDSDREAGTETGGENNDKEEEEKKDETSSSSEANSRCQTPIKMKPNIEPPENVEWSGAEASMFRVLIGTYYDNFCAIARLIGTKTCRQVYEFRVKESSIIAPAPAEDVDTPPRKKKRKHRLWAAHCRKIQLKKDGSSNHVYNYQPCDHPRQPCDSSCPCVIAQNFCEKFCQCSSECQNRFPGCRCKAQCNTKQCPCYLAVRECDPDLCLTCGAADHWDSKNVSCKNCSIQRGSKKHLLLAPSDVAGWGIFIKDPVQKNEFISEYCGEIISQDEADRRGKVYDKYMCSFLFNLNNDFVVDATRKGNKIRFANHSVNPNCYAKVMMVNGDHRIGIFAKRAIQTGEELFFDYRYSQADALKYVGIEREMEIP
experimental endpoint: pIC50
# pIC50 is unitless: minus log10 of the molar concentration; print number only

Sample answers from the record:
molecule: CC1(C)CC(NC(=O)c2ccc(Oc3cccc(Cl)c3C#N)c(Cl)c2)CC(C)(C)N1
assay target: Histone-lysine N-methyltransferase EZH2 (Homo sapiens, UniProt Q15910)
pIC50: 6.85

molecule: CC1(C)CC(NC(=O)c2ccc(Oc3cccc(-c4ccncc4)c3C#N)c(Cl)c2)CC(C)(C)N1
assay target: Histone-lysine N-methyltransferase EZH2 (Homo sapiens, UniProt Q15910)
pIC50: 7.09

molecule: Cc1cc(C(=O)NC2CC(C)(C)NC(C)(C)C2)ccc1Oc1ccccc1C#N
assay target: Histone-lysine N-methyltransferase EZH2 (Homo sapiens, UniProt Q15910)
pIC50: 6.04

molecule: CC1(C)CC(NC(=O)c2ccc(COc3ccccc3)cc2)CC(C)(C)N1
assay target: Histone-lysine N-methyltransferase EZH2 (Homo sapiens, UniProt Q15910)
pIC50: 4.32

molecule: CC1(C)CC(NC(=O)c2cc(F)c(Oc3ccccc3C#N)c(Br)c2)CC(C)(C)N1
assay target: Histone-lysine N-methyltransferase EZH2 (Homo sapiens, UniProt Q15910)
pIC50: 6.00

molecule: CC1CC(NC(=O)c2ccc(Oc3cccc(-c4ccnnc4)c3C#N)c(Cl)c2)CC(C)N1 (stereo not drawn)
assay target: Histone-lysine N-methyltransferase EZH2 (Homo sapiens, UniProt Q15910)
pIC50: 5.68

Test item CC1(C)CC(NC(=O)c2ccc(C(=O)c3ccccc3)cc2)CC(C)(C)N1 ; Histone-lysine N-methyltransferase EZH2 (Homo sapiens, UniProt Q15910); reported pIC50 was 4.24

Test item CC1(C)CC(NC(=O)c2ccc(Oc3ccccc3C#N)c(Br)c2)CC(C)(C)N1 ; Histone-lysine N-methyltransferase EZH2 (Homo sapiens, UniProt Q15910); reported pIC50 was 6.49

Test item Cc1ccccc1Oc1ccc(C(=O)NC2CC(C)(C)NC(C)(C)C2)cc1 ; Histone-lysine N-methyltransferase EZH2 (Homo sapiens, UniProt Q15910); reported pIC50 was 4.32
